# credit: patent US20240174693A1

- experiment: In vivo PK study
- condition_parameters: po, 3 mg/kg p.o.
endpoint_label: MRT inf (min)
Express the result in min but write the number alone.

get_value(item= CC(C)(NC(=O)[C@@H]1[C@@H]2C[C@H]1CN(C(=N)N)C2)c1nc(C2CC2)c2ccccn12 , readout=MRT inf) returns 11.4

====

- measured_on: CYP1A2 (Homo sapiens, UniProt P05177)
- Sequence (P05177 1-516): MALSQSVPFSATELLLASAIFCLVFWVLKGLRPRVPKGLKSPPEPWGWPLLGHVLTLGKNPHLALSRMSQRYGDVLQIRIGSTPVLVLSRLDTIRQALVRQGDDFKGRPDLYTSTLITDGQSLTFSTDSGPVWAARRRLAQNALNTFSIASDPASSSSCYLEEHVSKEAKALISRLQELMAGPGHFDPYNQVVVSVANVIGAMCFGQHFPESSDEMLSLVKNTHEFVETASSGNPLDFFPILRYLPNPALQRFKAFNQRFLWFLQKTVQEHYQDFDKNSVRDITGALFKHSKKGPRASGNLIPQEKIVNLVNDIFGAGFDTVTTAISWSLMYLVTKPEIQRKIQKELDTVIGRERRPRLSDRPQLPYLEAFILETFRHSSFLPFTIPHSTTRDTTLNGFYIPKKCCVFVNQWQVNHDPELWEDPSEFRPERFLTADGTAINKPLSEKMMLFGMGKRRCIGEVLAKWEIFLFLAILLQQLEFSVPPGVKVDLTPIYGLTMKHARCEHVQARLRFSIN
endpoint_label: IC50

Solved entries:
# compound, IC50
measured = [
    ("CC(C)(NC(=O)[C@H]1[C@@H]2CNC[C@H]1C2)c1ncc2c(Cl)cccn12 [Compound 7]", "> 10 µM"),
    ("CC(C)(NC(=O)[C@H]1[C@@H]2CNC[C@H]1C2)c1nc(C2CC2)c2ccccn12 [Compound 9]", "> 10 µM"),
]

Let us examine a further case.
Lab note: measured IC50 of CC(C)(NC(=O)[C@H]1[C@@H]2CNC[C@H]1C2)c1ncc2c(Br)cccn12 [Compound 8] was > 10 µM

====

- measured_on: hERG potassium channel (Homo sapiens, UniProt Q12809)
- Sequence (Q12809 whole entry): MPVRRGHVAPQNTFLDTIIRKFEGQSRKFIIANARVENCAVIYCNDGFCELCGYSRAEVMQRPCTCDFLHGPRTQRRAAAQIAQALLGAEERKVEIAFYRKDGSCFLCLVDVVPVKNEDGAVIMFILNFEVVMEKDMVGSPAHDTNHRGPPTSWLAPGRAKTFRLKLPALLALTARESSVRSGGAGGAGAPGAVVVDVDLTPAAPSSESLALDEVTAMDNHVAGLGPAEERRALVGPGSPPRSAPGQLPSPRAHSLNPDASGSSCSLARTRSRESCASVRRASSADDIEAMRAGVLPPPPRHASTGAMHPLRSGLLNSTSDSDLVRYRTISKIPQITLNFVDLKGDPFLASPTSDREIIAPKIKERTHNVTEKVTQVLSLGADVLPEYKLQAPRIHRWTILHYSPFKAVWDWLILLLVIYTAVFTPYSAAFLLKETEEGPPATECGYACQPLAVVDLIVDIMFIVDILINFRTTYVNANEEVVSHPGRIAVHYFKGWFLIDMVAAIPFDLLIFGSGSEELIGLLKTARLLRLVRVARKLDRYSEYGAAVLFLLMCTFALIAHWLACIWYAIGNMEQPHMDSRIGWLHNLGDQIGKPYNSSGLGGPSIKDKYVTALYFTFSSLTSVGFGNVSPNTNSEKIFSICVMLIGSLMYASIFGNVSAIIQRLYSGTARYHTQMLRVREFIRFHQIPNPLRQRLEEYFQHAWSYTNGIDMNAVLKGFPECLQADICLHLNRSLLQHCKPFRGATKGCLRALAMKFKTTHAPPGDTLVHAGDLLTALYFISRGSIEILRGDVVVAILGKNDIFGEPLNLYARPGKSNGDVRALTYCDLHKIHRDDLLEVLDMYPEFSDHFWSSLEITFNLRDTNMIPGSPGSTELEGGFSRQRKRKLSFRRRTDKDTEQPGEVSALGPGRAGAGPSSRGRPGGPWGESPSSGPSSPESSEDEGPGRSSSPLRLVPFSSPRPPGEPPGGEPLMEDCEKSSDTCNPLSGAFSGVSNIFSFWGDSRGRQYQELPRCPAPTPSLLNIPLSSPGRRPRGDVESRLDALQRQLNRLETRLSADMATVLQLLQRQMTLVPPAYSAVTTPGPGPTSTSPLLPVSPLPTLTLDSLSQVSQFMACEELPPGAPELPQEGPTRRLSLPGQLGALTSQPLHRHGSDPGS
- experiment: in vitro
- condition_parameters: hERG Current Inhibition Rate (%) Mean
endpoint_label: inhibition at 30 µM (%)
Numbers only; they are read as %.

Per the record, CC(C)(NC(=O)[C@H]1[C@@H]2CNC[C@H]1C2)c1ncc2c(Br)cccn12 has inhibition at 30 µM of -0.15

====

# key: entry, value: recovery at 5 h, 1 µM
- experiment: Plasma protein binding by dialysis
- Type: in vitro ADME
- condition_parameters: rat plasma
// note: answer is a bare numeric in %

# input_smiles, recovery at 5 h, 1 µM (%)
rows = [
    ("CC(C)(NC(=O)[C@H]1[C@@H]2CNC[C@H]1C2)c1nc(C2CC2)c2ccccn12", 68.2),
    ("CC(C)(NC(=O)[C@H]1[C@@H]2CNC[C@H]1C2)c1ncc2c(Cl)cccn12", 96.6),
]

--- query ---
The compound listed as CC(C)(NC(=O)[C@H]1[C@@H]2CNC[C@H]1C2)c1ncc2c(Br)cccn12 has a reported recovery at 5 h, 1 µM of 103

====

- experiment: Plasma protein binding by dialysis
- Assay type: in vitro ADME
- condition_parameters: rat plasma, 1 μM, 5 hours dialysis at 37° C.; read-out: Protein Binding Fraction unbound (fu) (converted)
Reported fraction unbound at 5 h, 1 μM is given for each of the following compounds.
A bare number is all that is needed in reply.

Record excerpt, results attached:
# input_smiles, numeric_result
records = [
    ("CC(C)(NC(=O)[C@H]1[C@@H]2CNC[C@H]1C2)c1nc(C2CC2)c2ccccn12", 0.409),
    ("CC(C)(NC(=O)[C@H]1[C@@H]2CNC[C@H]1C2)c1ncc2c(Cl)cccn12", 0.378),
]

Item: CC(C)(NC(=O)[C@H]1[C@@H]2CNC[C@H]1C2)c1ncc2c(Br)cccn12 | fraction unbound at 5 h, 1 μM: 0.282
